molecular target: human CK1δ (Homo sapiens, UniProt P48730); construct: GST (N); made in house; host or cells: E. coli; experiment: Test Example 1: CK1δ inhibitory activity (mobility shift, LabChip); assay type: biochemical; conditions: ratio of p38α IC50 to CK1δ IC50, Test Example 1
Sequence (P48730 1-294): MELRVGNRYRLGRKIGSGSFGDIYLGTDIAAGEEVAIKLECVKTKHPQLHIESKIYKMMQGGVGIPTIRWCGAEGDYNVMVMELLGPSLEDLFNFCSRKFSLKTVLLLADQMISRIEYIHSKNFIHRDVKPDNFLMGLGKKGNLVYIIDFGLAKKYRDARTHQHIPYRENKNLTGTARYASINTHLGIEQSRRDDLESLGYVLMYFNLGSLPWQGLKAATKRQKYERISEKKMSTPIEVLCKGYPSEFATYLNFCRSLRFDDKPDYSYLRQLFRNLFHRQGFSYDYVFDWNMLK
propertyName: Ratio (p38α/CK1δ)

Fc1ccc(-c2[nH]cnc2-c2ccc3c(c2)COC3)nc1 [Example 3]	92

P = c1ccc(-c2[nH]cnc2-c2ccc3c(c2)COC3)nc1 [Example 1]
Q = Cc1cccc(-c2[nH]cnc2-c2ccc3c(c2)COC3)n1 [Example 4]
Q. Of P and Q , whose reported Ratio (p38α/CK1δ) is the larger number? Your answer should be the label of the entry you select.
A. P

###

target: UniProt P36897; experiment: Test Example 2: ALK5 inhibition action (ADP-Glo kinase assay); type: biochemical; details: ATP 25 μM, 40 minutes, 10 concentrations 0.3-10,000 nM
Sequence (P36897 34-503): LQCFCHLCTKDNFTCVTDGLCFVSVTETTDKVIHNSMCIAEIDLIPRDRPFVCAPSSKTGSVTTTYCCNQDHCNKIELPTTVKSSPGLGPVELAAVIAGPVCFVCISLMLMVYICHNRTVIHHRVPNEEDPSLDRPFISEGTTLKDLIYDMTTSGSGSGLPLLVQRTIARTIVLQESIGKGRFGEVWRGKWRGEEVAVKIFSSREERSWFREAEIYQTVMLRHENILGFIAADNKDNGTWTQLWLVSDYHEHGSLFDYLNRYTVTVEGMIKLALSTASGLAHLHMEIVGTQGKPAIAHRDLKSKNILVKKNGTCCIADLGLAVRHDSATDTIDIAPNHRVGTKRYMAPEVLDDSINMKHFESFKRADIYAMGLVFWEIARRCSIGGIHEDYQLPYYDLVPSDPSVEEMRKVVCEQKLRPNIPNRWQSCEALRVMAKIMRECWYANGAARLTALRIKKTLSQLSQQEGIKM
propertyName: IC50 (nM)
Provide only the numeric value, understood in nM.

Q. Request - read-out IC50 | tested on UniProt P36897 | compound "c1ccc(-c2[nH]cnc2-c2ccc3c(c2)COC3)nc1"
A. 31
